- Test system: IRAK4
- Assay Conditions: concentration: 1 μM, replicates: in singlicate; n = 1;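 also: KINOMEscan kinase panel screen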
Recorded Endpoint: %Inh (%)
Respond numerically; units are % and should not be typed.

Molecule: COc1ccc(CNC(=O)NC2CCN(c3ccnc(Nc4ccc(F)cc4)n3)C2)cc1 (centres unmarked)
Units Symbol: %
%Inh: 0

// %Inh lookup, key: COC(=O)c1c(-c2ccccc2)c2cc(Br)ccc2c(=O)n1Cc1ccc(S(C)(=O)=O)cc1
18

Try Cc1ccc(-c2ccc3c(ccc4sc5c(c43)NC[C@@H](C)N=C5N(C)C)n2)cn1 next.
0

Try Cc1c(Cn2c(C)nn3c(=O)cc(N4CCO[C@H](C)C4)nc23)cccc1C(F)(F)F next.
24

Try O=C(Nc1n[nH]c2nc(-c3ccccc3)c(Cl)cc12)C1CC1 next.
24

---

- System: EPHB2
- Assay Conditions: concentration: 1 μM, replicates: in singlicate; n = 1
Recorded Endpoint: %Inh (%)
Respond numerically; units are % and should not be typed.

Compound: Cc1ccc(-c2ccc3c(ccc4sc5c(c43)NC[C@@H](C)N=C5N(C)C)n2)cn1
Tested On: EPHB2
Units Symbol: %
%Inh: 0
//
Compound: COc1cc2ncn(-c3cc(OCc4ccc(S(C)(=O)=O)cc4)c(C(N)=O)s3)c2cc1OC [GW869979]
Tested On: EPHB2
Units Symbol: %
%Inh: 9
//
Compound: COc1cc(Nc2nccc(N3CCC(NC(=O)C(C)c4ccc(Cl)cc4)C3)n2)cc(OC)c1OC (stereo not drawn) [GSK1379757]
Tested On: EPHB2
Units Symbol: %
%Inh: 0
//
Compound: CCS(=O)c1ccc(-c2coc3ccc(-c4nnc(C)o4)cc23)cc1 (stereo not drawn)
Tested On: EPHB2
Units Symbol: %
%Inh: 0
//
Compound: Cl.NS(=O)(=O)c1cccc(Nc2cc(-c3ccc(F)cc3)n[nH]2)c1 [GW824645]
Tested On: EPHB2
Units Symbol: %
%Inh: 0
//
Compound: Cc1nc(N(C)[C@H]2CN(C(=O)CC#N)CC[C@H]2C)c2cc[nH]c2n1
Tested On: EPHB2
Units Symbol: %
%Inh: 0

// %Inh lookup, key: CCC(=O)c1c(-c2ccccc2)c2cc(Cl)ccc2c(=O)n1Cc1cc(S(C)(=O)=O)n(CC(F)F)n1
0

Try CCCNC(=O)Nc1ccc(Oc2ncnc3ccn(C)c23)cc1 next.
20

Try COc1ccc(-c2coc3ccc(-c4nnc(SCc5cccc(C#N)c5)o4)cc23)cc1 next.
5

Try FC(F)(F)c1ccc(-c2ncn(CCCN3CCOCC3)c2-c2ccncc2)cc1 [SB-217780] next.
0

Try O=C(Nc1ccc2c(c1)OCO2)NC1CCN(c2ccnc(NCc3ccc(F)cc3)n2)CC1 [GSK1379859] next.
37

Try Cc1cc(Nc2nc(-c3cccc(C)n3)nc3ccccc23)ccn1 [GW872411] next.
0

Try O=C(Nc1n[nH]c2nc(-c3ccccc3)c(Cl)cc12)C1CC1 [SB-734909] next.
0

Try CCC(=O)c1c(-c2ccccc2)c2cc(Cl)ccc2c(=O)n1Cc1cc(C(=O)NC2CC2)n(C)n1 next.
4

Try CC(C)(C)c1ccc(C(=O)Nc2cn3cc(-c4ccccc4)ccc3n2)cc1 next.
0

---

- System: CSNK2A2
- Assay Conditions: concentration: 1 μM, replicates: in singlicate; n = 1
// NB: equality with 3% counts as No; only %Inh strictly below is Yes

// known answers, use as guide
Compound: Fc1cccc(CSc2nnc(-c3ccc4c(c3)CCO4)o2)c1
Tested On: CSNK2A2
Class: No
--
Compound: COc1cc(Nc2ccnc3ccc(C(F)(F)F)cc23)cc(OC)c1OC
Tested On: CSNK2A2
Class: No
--
Compound: COc1cccc(-n2cnc3c(N)ncnc32)c1
Tested On: CSNK2A2
Class: No

Just wondering, is %Inh of CCC(=O)c1c(-c2ccccc2)c2cc(Cl)ccc2c(=O)n1Cc1cc(S(C)(=O)=O)n(CCC(C)(C)O)n1 below 3%?
No

Try O=C(Nc1ccc2c(c1)OCO2)NC1CCN(c2ccnc(NCc3ccc(F)cc3)n2)CC1 next.
No

Try CCc1nc(-c2cccc(C)c2)c(-c2ccncc2)s1 next.
Yes

---

Readings of %Inh for the listed compounds
- System: RIOK2
- Assay Conditions: concentration: 1 μM, replicates: in singlicate; n = 1
Respond numerically; units are % and should not be typed.

Compound: CCC(=O)c1c(-c2ccccc2)c2cc(Cl)ccc2c(=O)n1Cc1cc(S(C)(=O)=O)n(CCC(C)(C)O)n1
Assay Value: 42
//
Compound: CCCNC(=O)Nc1ccc(Oc2ncnc3ccn(C)c23)cc1
Assay Value: 10
//
Compound: COc1cccc(C2=C(N(C)c3ccccc3)C(=O)NC2=O)c1
Assay Value: 0
//
Compound: COC(=O)c1c(-c2ccccc2)c2cc(C)ccc2c(=O)n1Cc1ccccc1
Assay Value: 0
//
Compound: Nc1nccc2scc(-c3ccc4c(c3)CCN4C(=O)Cc3ccccc3)c12
Assay Value: 6

Entry CCCC(=O)Nc1n[nH]c2ncc(-c3cccc4ccccc34)cc12 , system RIOK2: what %Inh was measured?
0

Try C[C@@H]1CC[C@H](C(=O)NC2CCCCC2)CN1c1cc(-c2ccc3c(N)n[nH]c3c2)nc(N)n1 next.
22

Try FC(F)(F)c1ccc(-c2ncn(CCCN3CCOCC3)c2-c2ccncc2)cc1 next.
5

Try CCC(=O)c1c(-c2ccccc2)c2cc(Cl)ccc2c(=O)n1Cc1cc(S(C)(=O)=O)n(CC(N)=O)n1 next.
0

Try Fc1cccc(CSc2nnc(-c3ccc4c(c3)CCO4)o2)c1 next.
5

Try Cc1nc(N(C)[C@H]2CN(C(=O)CC#N)CC[C@H]2C)c2cc[nH]c2n1 next.
2

Try O=C(Nc1n[nH]c2nc(-c3ccccc3)c(Cl)cc12)C1CC1 next.
41

---

- System: ADCK4
- Assay Conditions: concentration: 1 μM, replicates: in singlicate; n = 1
Use 20% as the dividing line for %Inh, with the line itself on the criterion met side and lower values as criterion not met.

Compound: O=C(Nc1ccc2c(c1)OCO2)NC1CCN(c2ccnc(NCc3ccc(F)cc3)n2)CC1
Tested On: ADCK4
Class: criterion met

Compound: COc1cc2ncn(-c3cc(OCc4ccncc4Br)c(C(N)=O)s3)c2cc1OC
Tested On: ADCK4
Class: criterion not met

Is it the case that COc1ccc(Nc2nccc(N3CCC(NS(=O)(=O)c4ccc(NC(C)=O)cc4)C3)n2)cc1 (stereo not drawn) has %Inh reaching or exceeding 20%?
criterion met

Try COc1cccc(C2=C(Nc3cccc(C(=O)O)c3)C(=O)NC2=O)c1 next.
criterion not met

Try Cc1nnc(-c2ccc(C)c(-c3ccc(C(=O)O)cc3)c2)o1 next.
criterion not met

Try Fc1cccc(CSc2nnc(-c3ccc4c(c3)CCO4)o2)c1 next.
criterion not met

Try Cl.c1ccc(Cn2cnc3cc(Nc4ncnc5ccccc45)ccc32)cc1 next.
criterion met

Try COc1cc2nccc(Nc3ccc(OCc4ccc(NC(C)=O)cc4)cc3)c2cc1OC.Cl next.
criterion met

Try Nc1ncnc2c1ncn2-c1cccc(F)c1 next.
criterion not met

---

- Tested on: INSR
- Assay Conditions: concentration: 1 μM, replicates: in singlicate; n = 1
Recorded Endpoint: %Inh (%)
Respond numerically; units are % and should not be typed.

Some compounds with known %Inh results, for comparison:
Compound: Nc1ncnc2c1ncn2-c1cccc2ccccc12 [SKF-97184]
%Inh, %: 0
--
Compound: COc1cc2ncn(-c3cc(OCc4ccncc4)c(C(N)=O)s3)c2cc1OC [GSK336313]
%Inh, %: 1
--
Compound: COc1cc2nccc(Nc3cccc(Oc4ccccc4)c3)c2cc1OC.Cl [GW284543]
%Inh, %: 4

// %Inh lookup, key: COc1cc(Nc2nccc(N3CCC(NC(=O)C(C)c4ccc(Cl)cc4)C3)n2)cc(OC)c1OC (centres unmarked) [GSK1379757]
0

Try CN(C)c1cc(-c2ccc3c(N)n[nH]c3c2)nc(N)n1 [GSK2219329] next.
0

---

- System: TIE2
- Construct: gene TEK
- Assay Conditions: concentration: 1 μM, replicates: in singlicate; n = 1
Recorded Endpoint: %Inh

Some compounds with known %Inh results, for comparison:
Compound String: O=C(Nc1n[nH]c2nc(-c3ccccc3)c(Br)cc12)C1CC1
%Inh: 11%
//
Compound String: CCS(=O)(=O)c1ccc(OC)c(Nc2ncc(-c3ccc(F)cc3)o2)c1.Cl
%Inh: 0%
//
Compound String: CCC(=O)c1c(-c2ccccc2)c2cc(Cl)ccc2c(=O)n1Cc1cc(C(=O)NC2CC2)n(C)n1
%Inh: 0%

// %Inh lookup, key: Nc1ncnc2c1ncn2-c1ccc(Cl)cc1
0%

Try COc1ccc(-c2coc3ccc(-c4nnc(SCc5cccc(C#N)c5)o4)cc23)cc1 next.
5%

Try COc1cccc(C2=C(N(C)c3ccccc3)C(=O)NC2=O)c1 next.
0%

Try COc1cc(Nc2ccnc3ccc(C(F)(F)F)cc23)cc(OC)c1OC next.
0%
